pIC50: −log10 of the molar value.
PDGFRB (Homo sapiens) measurements of pIC50, listed per entry.

The cases that follow already have their pIC50 on record.
COc1cc2nccc(Oc3ccc(Nc4c(NCC(F)(F)F)c(=O)c4=O)c(Cl)c3)c2cc1C(N)=O: 6.00 to 6.70
[2H]C([2H])([2H])NC(=O)c1coc2cc(Oc3ccnc4cc(-c5cn(C)cn5)ccc34)ccc12: > 7.30
COc1cc2nccc(Oc3ccc(NC(=S)Nc4cnn(C(C)C)c4)c(Cl)c3)c2cc1C(N)=O: > 7.30
Cn1cnc(-c2ccc3c(Oc4ccc(NC(=S)NC5CC5)c(Cl)c4)ccnc3c2)c1: > 7.30
COc1cc2nccc(Oc3ccc(N4CCNC4=O)c(Cl)c3)c2cc1C(N)=O: 6.00 to 6.70

Param readout= pIC50; system= PDGFRB (Homo sapiens); entry= COc1cc2nccc(Oc3ccc(NC(=O)N4CC[C@H](F)C4)c(Cl)c3F)c2cc1C(N)=O ; returns value.
6.70 to 7.30

Param readout= pIC50; system= PDGFRB (Homo sapiens); entry= COc1cc2nccc(Oc3ccc(NC(=S)N4CC(F)(F)C4)c(Cl)c3)c2cc1C(N)=O ; returns value.
6.70 to 7.30

Param readout= pIC50; system= PDGFRB (Homo sapiens); entry= COc1cc2nccc(Oc3ccc(NC(=S)N4CCCC4)c(Cl)c3)c2cc1C(N)=O ; returns value.
6.00 to 6.70

Param readout= pIC50; system= PDGFRB (Homo sapiens); entry= COc1cc2nccc(Oc3ccc(NC(=S)Nc4cccnc4)c(Cl)c3)c2cc1C(N)=O ; returns value.
6.70 to 7.30

====

assayed_target: VEGFR2 (Homo sapiens, UniProt P35968)
Sequence (P35968 20-1356): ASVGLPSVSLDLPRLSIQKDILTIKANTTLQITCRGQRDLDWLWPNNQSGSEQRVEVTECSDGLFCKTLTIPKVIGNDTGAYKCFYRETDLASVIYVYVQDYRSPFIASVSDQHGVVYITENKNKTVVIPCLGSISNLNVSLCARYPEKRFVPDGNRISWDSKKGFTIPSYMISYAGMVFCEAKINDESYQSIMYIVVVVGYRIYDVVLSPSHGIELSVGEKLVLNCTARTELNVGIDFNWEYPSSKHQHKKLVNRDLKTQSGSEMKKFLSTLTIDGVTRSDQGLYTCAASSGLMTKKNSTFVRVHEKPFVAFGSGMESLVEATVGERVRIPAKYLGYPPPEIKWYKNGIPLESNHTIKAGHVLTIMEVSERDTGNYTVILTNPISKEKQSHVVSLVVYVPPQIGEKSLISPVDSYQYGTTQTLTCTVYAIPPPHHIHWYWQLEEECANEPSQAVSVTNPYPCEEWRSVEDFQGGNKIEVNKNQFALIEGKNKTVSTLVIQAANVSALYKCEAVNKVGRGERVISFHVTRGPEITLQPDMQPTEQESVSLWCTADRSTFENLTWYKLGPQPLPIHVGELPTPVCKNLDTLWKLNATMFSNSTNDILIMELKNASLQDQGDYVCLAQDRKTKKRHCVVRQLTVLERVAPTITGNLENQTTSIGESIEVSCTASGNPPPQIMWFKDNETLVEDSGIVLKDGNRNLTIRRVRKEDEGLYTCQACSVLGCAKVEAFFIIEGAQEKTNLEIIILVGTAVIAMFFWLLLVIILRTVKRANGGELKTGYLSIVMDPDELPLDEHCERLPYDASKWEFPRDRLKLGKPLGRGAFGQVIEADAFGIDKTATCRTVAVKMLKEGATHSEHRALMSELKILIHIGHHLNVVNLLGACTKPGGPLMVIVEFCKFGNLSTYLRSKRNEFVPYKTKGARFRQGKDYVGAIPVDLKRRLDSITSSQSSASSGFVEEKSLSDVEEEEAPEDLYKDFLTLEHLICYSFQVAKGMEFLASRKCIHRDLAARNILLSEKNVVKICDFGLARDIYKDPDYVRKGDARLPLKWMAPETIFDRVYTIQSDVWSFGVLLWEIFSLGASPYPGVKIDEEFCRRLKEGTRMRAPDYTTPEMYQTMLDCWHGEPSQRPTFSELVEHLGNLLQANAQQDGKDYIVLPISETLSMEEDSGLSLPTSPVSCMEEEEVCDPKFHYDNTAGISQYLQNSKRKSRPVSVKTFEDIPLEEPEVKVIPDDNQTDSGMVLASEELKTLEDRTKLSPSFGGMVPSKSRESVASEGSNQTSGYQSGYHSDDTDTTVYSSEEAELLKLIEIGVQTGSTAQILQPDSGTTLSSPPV
pIC50: −log10 of the molar value.
endpoint: pIC50

The cases that follow already have their pIC50 on record.
COc1cc2nccc(Oc3ccc(N4C(=O)CN(C)C4=S)c(Cl)c3)c2cc1C(N)=O: 6.00 to 6.70
COc1cc2nccc(Oc3ccc(NC(=S)Nc4cc[nH]n4)c(Cl)c3)c2cc1C(N)=O: 6.70 to 7.30
COc1cc2nccc(Oc3ccc(NC(=S)N4CC(F)(F)C4)c(Cl)c3)c2cc1NC(C)=O: 6.00 to 6.70
COCCCNc1c(Nc2ccc(Oc3ccnc4cc(OC)c(C(N)=O)cc34)cc2Cl)c(=O)c1=O: 6.00 to 6.70
COc1cc2nccc(Oc3ccc(NC(=O)N4CC[C@H](O)C4)c(Cl)c3F)c2cc1C(N)=O: 6.70 to 7.30

Param readout= pIC50; system= VEGFR2 (Homo sapiens, UniProt P35968); entry= COc1cc2nccc(Oc3ccc(Nc4c(Nc5cccnc5)c(=O)c4=O)c(Cl)c3)c2cc1C(N)=O ; returns value.
6.00 to 6.70

Param readout= pIC50; system= VEGFR2 (Homo sapiens, UniProt P35968); entry= COc1cc2nccc(Oc3cc(Cl)c(NC(=S)NC4CC4)cc3F)c2cc1C(N)=O ; returns value.
> 7.30

Param readout= pIC50; system= VEGFR2 (Homo sapiens, UniProt P35968); entry= COc1cc2nccc(Oc3cc(F)c(NC(=S)N4CC(F)(F)C4)c(F)c3)c2cc1C(N)=O ; returns value.
6.00 to 6.70

Param readout= pIC50; system= VEGFR2 (Homo sapiens, UniProt P35968); entry= O=C(Nc1ccc(Oc2ccnc3cc(-c4cn(-c5ccccc5)cn4)ccc23)c(F)c1Cl)NC1CC1 ; returns value.
6.00 to 6.70

Param readout= pIC50; system= VEGFR2 (Homo sapiens, UniProt P35968); entry= COc1cc2nccc(Oc3ccc4[nH]cc(C#N)c4c3)c2cc1C(N)=O ; returns value.
6.00 to 6.70

Param readout= pIC50; system= VEGFR2 (Homo sapiens, UniProt P35968); entry= CC1(C)NC(=O)c2cc3c(Oc4ccc(NC(=S)NC5CC5)c(Cl)c4)ccnc3cc2O1 ; returns value.
6.00 to 6.70

Param readout= pIC50; system= VEGFR2 (Homo sapiens, UniProt P35968); entry= COc1cc2nccc(Oc3ccc(NC(=S)NCCCO)c(Cl)c3)c2cc1C(N)=O ; returns value.
6.70 to 7.30

Param readout= pIC50; system= VEGFR2 (Homo sapiens, UniProt P35968); entry= Cc1c(OCC(C)O)cn2ncnc(Oc3ccc(NC(=S)NC4CC4)c(Cl)c3)c12 (stereo not shown) ; returns value.
6.00 to 6.70

Param readout= pIC50; system= VEGFR2 (Homo sapiens, UniProt P35968); entry= COc1cc2nccc(Oc3ccc(NC(=S)NC4CCC(F)(F)CC4)c(Cl)c3)c2cc1C(N)=O ; returns value.
6.00 to 6.70

Param readout= pIC50; system= VEGFR2 (Homo sapiens, UniProt P35968); entry= COc1cc2nccc(Oc3ccc(NC(=S)NCC(C)(C)O)c(Cl)c3)c2cc1C(N)=O ; returns value.
6.00 to 6.70

Param readout= pIC50; system= VEGFR2 (Homo sapiens, UniProt P35968); entry= COc1cc2nccc(Oc3ccc(NC(=S)Nc4cnc(C)s4)c(Cl)c3)c2cc1C(N)=O ; returns value.
6.70 to 7.30

====

assayed_target: VEGFR2 (Homo sapiens, UniProt P35968)
pIC50: −log10 of the molar value.
Catalogue of pIC50 readings, one per entry.

COc1cc2nccc(Oc3ccc(NC(=S)NCCc4ccccc4)c(Cl)c3)c2cc1C(N)=O: 6.00 to 6.70
COc1cc2nccc(Oc3ccc4c(C(=O)N5CC[C@H](F)C5)coc4c3)c2cc1C(N)=O: 6.00 to 6.70
COc1cc2nccc(Oc3ccc4c(c3)CCCN4C(=S)NCC(F)F)c2cc1C(N)=O: 6.00 to 6.70
COc1cc2nccc(Oc3ccc(NC(=O)NC(C)(C)C(F)(F)F)c(Cl)c3)c2cc1C(N)=O: 6.00 to 6.70
COc1cc2nccc(Oc3ccc(NC(=S)N4CC[C@H](F)C4)c(Cl)c3F)c2cc1C(N)=O: > 7.30

Param readout= pIC50; system= VEGFR2 (Homo sapiens, UniProt P35968); entry= Cn1cnc(-c2ccc3c(Oc4ccc(NC(=O)NC5CC5)c(Cl)c4)ccnc3c2)c1 ; returns value.
> 7.30

Param readout= pIC50; system= VEGFR2 (Homo sapiens, UniProt P35968); entry= COc1cc2nccc(Oc3ccc4oc(C(=O)N5CCCC5)cc4c3)c2cc1C(N)=O ; returns value.
6.00 to 6.70

Param readout= pIC50; system= VEGFR2 (Homo sapiens, UniProt P35968); entry= COc1cc2nccc(Oc3ccc(NC(=S)NCCCSC)c(Cl)c3)c2cc1C(N)=O ; returns value.
6.70 to 7.30

====

PDGFRB (Homo sapiens, UniProt P09619) measurements of IC50, listed per entry.
Sequence (P09619 33-1106): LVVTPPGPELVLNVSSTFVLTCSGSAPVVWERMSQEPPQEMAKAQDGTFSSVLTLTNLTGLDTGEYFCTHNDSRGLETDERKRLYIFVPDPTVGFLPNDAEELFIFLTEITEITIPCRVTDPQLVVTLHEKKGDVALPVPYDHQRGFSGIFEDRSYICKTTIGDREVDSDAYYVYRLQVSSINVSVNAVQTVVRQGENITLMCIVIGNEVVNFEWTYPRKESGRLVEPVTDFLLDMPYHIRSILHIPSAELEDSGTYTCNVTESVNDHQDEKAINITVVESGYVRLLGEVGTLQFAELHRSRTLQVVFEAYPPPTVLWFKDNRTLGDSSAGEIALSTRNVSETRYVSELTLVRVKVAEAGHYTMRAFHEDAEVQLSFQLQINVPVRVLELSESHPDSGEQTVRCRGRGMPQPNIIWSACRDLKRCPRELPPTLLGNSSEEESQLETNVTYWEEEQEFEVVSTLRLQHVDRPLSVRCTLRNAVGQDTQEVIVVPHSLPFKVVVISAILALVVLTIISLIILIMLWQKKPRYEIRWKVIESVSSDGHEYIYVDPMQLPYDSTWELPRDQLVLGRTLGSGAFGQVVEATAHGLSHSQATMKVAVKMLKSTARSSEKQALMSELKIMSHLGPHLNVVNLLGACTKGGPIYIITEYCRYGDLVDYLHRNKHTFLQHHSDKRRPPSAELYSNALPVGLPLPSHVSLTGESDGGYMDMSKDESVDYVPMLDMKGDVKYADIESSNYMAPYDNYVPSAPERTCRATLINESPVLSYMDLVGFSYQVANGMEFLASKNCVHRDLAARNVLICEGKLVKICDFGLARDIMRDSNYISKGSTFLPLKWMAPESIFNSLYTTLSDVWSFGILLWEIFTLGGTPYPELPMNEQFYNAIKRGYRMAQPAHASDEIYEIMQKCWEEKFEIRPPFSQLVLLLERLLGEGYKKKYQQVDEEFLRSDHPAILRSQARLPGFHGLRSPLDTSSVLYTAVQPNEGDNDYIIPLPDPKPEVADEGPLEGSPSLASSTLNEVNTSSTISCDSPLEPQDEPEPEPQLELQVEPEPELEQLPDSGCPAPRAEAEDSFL

C#CCNC(=S)Nc1ccc(Oc2ccnc3cc(OC)c(C(N)=O)cc23)cc1Cl: 50 to 200 nM
COc1cc2nccc(Oc3ccc4c(c3)CCCN4C(=S)NCC(F)F)c2cc1C(N)=O: 50 to 200 nM
COc1cc2nccc(Oc3cc(Cl)c4c(C(=O)N5CC(F)(F)C5)coc4c3)c2cc1C(N)=O: 200 to 1000 nM
COCCCNc1c(Nc2ccc(Oc3ccnc4cc(OC)c(C(N)=O)cc34)cc2Cl)c(=O)c1=O: 200 to 1000 nM
[2H]C([2H])([2H])NC(=O)c1coc2cc(Oc3ccnc4cc(OC)c(C(N)=O)cc34)c(Cl)cc12: < 50 nM
COc1cc2nccc(Oc3ccc(NC(=S)NCCN4CCOCC4)c(Cl)c3)c2cc1C(N)=O: < 50 nM
COc1cc2nccc(Oc3ccc(NC(=S)N4CCCC4)c(Cl)c3F)c2cc1C(N)=O: 50 to 200 nM

Field: next compound
What does the data say about its IC50? Entry: COc1cc2nccc(Oc3ccc(NC(=S)N4CC[C@H](O)C4)c(Cl)c3)c2cc1C(N)=O
200 to 1000 nM

====

Catalogue of pIC50 readings, one per entry.
assayed_target: FGFR1 (Homo sapiens, UniProt P11362)
Sequence (P11362 22-822): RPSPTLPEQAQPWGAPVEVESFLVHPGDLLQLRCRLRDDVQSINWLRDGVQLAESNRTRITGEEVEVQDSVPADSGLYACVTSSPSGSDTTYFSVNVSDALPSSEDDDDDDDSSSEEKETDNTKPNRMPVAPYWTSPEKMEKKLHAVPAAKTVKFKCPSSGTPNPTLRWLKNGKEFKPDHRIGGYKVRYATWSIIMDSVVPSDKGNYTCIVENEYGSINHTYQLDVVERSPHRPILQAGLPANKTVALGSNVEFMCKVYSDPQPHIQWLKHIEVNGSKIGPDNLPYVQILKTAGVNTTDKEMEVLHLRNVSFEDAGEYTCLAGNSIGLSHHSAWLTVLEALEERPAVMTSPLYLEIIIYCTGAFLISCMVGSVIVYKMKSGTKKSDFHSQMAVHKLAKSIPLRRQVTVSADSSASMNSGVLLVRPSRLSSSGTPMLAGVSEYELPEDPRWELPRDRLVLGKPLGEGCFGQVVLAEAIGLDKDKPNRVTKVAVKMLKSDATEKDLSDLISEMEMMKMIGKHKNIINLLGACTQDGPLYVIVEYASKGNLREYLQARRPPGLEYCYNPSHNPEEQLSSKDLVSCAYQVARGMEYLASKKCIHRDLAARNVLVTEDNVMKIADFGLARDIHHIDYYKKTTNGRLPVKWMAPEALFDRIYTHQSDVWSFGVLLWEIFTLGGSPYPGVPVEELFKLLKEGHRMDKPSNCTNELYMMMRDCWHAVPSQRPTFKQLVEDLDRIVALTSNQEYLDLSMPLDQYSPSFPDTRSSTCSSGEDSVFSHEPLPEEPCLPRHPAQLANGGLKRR
pIC50: −log10 of the molar value.

The cases that follow already have their pIC50 on record.
CCNC(=O)c1coc2cc(Oc3ccnc4cc(OC)c(C(N)=O)cc34)ccc12: 6.00 to 6.70
CCNC(=O)Nc1ccc(Oc2ccnc3cc(-c4cn(C)cn4)ccc23)cc1Cl: > 7.30
COc1ccc2c(Oc3ccc(NC(=S)NC4CC4)c(Cl)c3)ccnc2c1: 6.00 to 6.70
COc1cc2nccc(Oc3ccc(Nc4c(NCCc5ccccc5)c(=O)c4=O)c(Cl)c3)c2cc1C(N)=O: 6.00 to 6.70
COc1cc2nccc(Oc3ccc(NC(=S)Nc4cccc(C(F)(F)F)c4)c(Cl)c3)c2cc1C(N)=O: 6.00 to 6.70
COc1cc2nccc(Oc3ccc(NC(=S)NC4CC4)c(Cl)c3F)c2cc1C(N)=O: 6.70 to 7.30
COc1cc2nccc(Oc3ccc(NC(=S)Nc4cc[nH]n4)c(Cl)c3)c2cc1C(N)=O: 6.00 to 6.70

Param readout= pIC50; system= FGFR1 (Homo sapiens, UniProt P11362); entry= COc1cc2nccc(Oc3cc(Br)c4c(C(=O)N5CC(F)(F)C5)coc4c3)c2cc1C(N)=O ; returns value.
6.00 to 6.70

Hello, the source for this data is patent US10654808B2, in case you need it.
